# measurementTarget: mTOR/GbL/Raptor (mTORC1) (Homo sapiens)
# assayComment: mTOR/GbL/Raptor (mTORC1) ELISA assay
# details: phosphorylation of 4E-BP1; 0.2 nM mTORC1, 10 μM ATP; read-out: IC50 in this assay (mTORC1 ELISA)
# Procedure: The measurement of mTORC1 enzyme activity was performed in an ELISA assay format following the phosphorylation of 4E-BP1 protein. All experiments were performed in the 384-well format. Generally, 0.5 μL DMSO containing varying concentrations of the test Compound was mixed with 15 μL enzyme solution. […] Following the final wash step with TBST, 20 μL of SuperSignal ELISA Femto (Pierce Biotechnology) was added and the luminescence measured using an EnVision plate reader.
measurementLabel: IC50

For orientation, consider the following solved cases.
- molecule: "CC1CCc2c(ncnc2N2CCOc3ccc(-c4cnc5nc(N)[nH]c5c4)cc3C2)C1 (stereo not shown)"
  IC50: "10 to 50 nM"
- molecule: "Cc1nc2ccc(-c3ccc4c(c3)CN(c3ncnc5cc(C(F)(F)F)ccc35)CCO4)cc2[nH]1"
  IC50: "50 to 250 nM"
- molecule: "CNC1CN(S(=O)(=O)c2cc(-c3ccc4c(c3)CN(c3ncnc5c3CC(C)(C)CC5)CCO4)cnc2N)C1"
  IC50: "10 to 50 nM"

Next molecule, please.
(Q) Param item = "COC(=O)Nc1nc2ncc(-c3ccc4c(c3)CN(c3ncnc5c3CC(C)(C)C=C5)CCO4)cc2[nH]1" ; retrieve measured IC50.
(A) ≤ 10 nM
